From: ChEMBL document CHEMBL1240304

- System: Hepatitis C virus
- assayExplanation: microbe, parasite or virus in culture
- reportedConditions: isolate Con1, Huh-7
- Description: Antiviral activity against Hepatitis C virus (isolate Con1) genotype 1b in human Huh-7/3-1 cells assessed as inhibition of SPT activity in presence of 1 uM sphinganine
pIC50: −log10 of the molar value.
readoutName: pIC50

> print(dat)
                                 chemsmiles  measurementtarget  testresult
1  CCCCCCCC(=O)CCCCCC/C=C/[C@H](C(=O)N[C@@H](Cc1ccc(OCC=C(C)C)cc1)C(=O)O)[C@@](O)(CC(=O)O)C(=O)O  Hepatitis C virus        7.48

---

- System: Hepatitis C virus
- assayExplanation: microbe, parasite or virus in culture
- reportedConditions: isolate Con1, Huh-7
- Description: Antiviral activity against Hepatitis C virus (isolate Con1) genotype 1b in human Huh-7/3-1 cells assessed as inhibition of SPT activity in presence of 3 uM sphinganine
pIC50: −log10 of the molar value.
readoutName: pIC50

> print(dat)
                                 chemsmiles  testresult
1  CCCCCCCC(=O)CCCCCC/C=C/[C@H](C(=O)N[C@@H](Cc1ccc(OCC=C(C)C)cc1)C(=O)O)[C@@](O)(CC(=O)O)C(=O)O      < 6.00

---

- measurementTarget: UniProtKB O15269
- Sequence (O15269 whole entry): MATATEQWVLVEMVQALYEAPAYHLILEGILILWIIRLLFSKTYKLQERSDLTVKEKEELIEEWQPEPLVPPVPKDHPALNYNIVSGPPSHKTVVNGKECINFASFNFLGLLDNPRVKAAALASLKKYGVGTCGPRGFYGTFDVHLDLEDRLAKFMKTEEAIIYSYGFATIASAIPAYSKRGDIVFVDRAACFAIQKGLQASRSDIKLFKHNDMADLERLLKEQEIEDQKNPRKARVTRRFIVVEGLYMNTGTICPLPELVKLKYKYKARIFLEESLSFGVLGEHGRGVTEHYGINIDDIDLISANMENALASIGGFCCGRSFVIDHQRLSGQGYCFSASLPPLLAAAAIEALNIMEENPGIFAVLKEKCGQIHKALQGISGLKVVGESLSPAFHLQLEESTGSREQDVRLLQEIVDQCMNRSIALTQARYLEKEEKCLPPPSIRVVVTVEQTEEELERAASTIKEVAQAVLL
- assayExplanation: Inhibition of human recombinant SPT1 activity in LCB1 transfected human HEK293 cells
- Type: cell-based
pIC50: −log10 of the molar value.
readoutName: pIC50

> print(dat)
                                 chemsmiles  readoutname  testresult
1  CCCCCCCC(=O)CCCCCC/C=C/[C@H](C(=O)N[C@@H](Cc1ccc(OCC=C(C)C)cc1)C(=O)O)[C@@](O)(CC(=O)O)C(=O)O        pIC50        8.00
